target: T1, ヒト組織因子(TF)(ヒト膀胱癌細胞J82上に発現) (human, UniProt P13726 33-295); experiment: cell ELISA on fixed J82 cells
T1 construct: whole, on cells; Target of the cell ELISA; also called ヒトTF; 抗原
Quantity: binding result

H鎖ヒト型化バージョンi/L鎖ヒト型化バージョンb抗体 (antibody, V domains shown, Human IgG4 kappa (vector N5KG4P); also called i-b; ib) VH: QVQLLESGAVLARPGTSVKISCKASGFNIKDYYMHWVKQRPGQGLEWIGGNDPANGHSMYDPKFQGRVTITADTSTSTVFMELSSLRSEDTAVYYCARDSGYAMDYWGQGTLVTVSS VL: DIQMTQSPSSLSASVGDRVTITCKASQDIKSFLSWYQQKPGKAPKLLIYYATSLADGVPSRFSGSGSGTDYTLTISSLQPEDFATYYCLQHGESPYTFGGGTKVEIK = binds
H鎖ヒト型化バージョンe/L鎖キメラ抗体 (antibody, V domains shown, Human IgG4 kappa (vector N5KG4P); also called e-ch) VH: QVQLLESGAVLARPGTSVKISCKASGFNIKDYYMHWVKQRPGQGLEWIGGNDPANGHSMYDPKFQGRVSITADESTKIAYMELNSLRSEDTAVYFCARDSGYAMDYWGQGTLVTVSS VL: DIKMTQSPSSMYASLGERVTITCKASQDIKSFLSWYQQKPWKSPKTLIYYATSLADGVPSRFSGSGSGQDYSLTINNLESDDTATYYCLQHGESPYTFGGGTKLEIK = binds
H鎖ヒト型化バージョンd/L鎖ヒト型化バージョンb抗体 (antibody, V domains shown, Human IgG4 kappa (vector N5KG4P); also called d-b) VH: QVQLLESGAVLARPGTSVKISCKASGFNIKDYYMHWVKQRPGQGLEWIGGNDPANGHSMYDPKFQGRVTITADESTSTAYMELSSLRSEDSAVYFCARDSGYAMDYWGQGTLVTVSS VL: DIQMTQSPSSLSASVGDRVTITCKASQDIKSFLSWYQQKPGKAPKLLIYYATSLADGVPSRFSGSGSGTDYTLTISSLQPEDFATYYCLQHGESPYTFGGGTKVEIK = binds
H鎖ヒト型化バージョンb/L鎖ヒト型化バージョンb2抗体 (antibody, V domains shown, Human IgG4 kappa (vector N5KG4P); also called b-b2) VH: QVQLLESGAVLARPGTSVKISCKASGFNIKDYYMHWVKQRPGQGLEWIGGNDPANGHSMYDPKFQGRVTITADTSTNTAYMELSSLRSEDTAIYYCARDSGYAMDYWGQGTLVTVSS VL: DIQMTQSPSSLSASVGDRVTITCKASQDIKSFLSWYQQKPEKAPKSLIYYATSLADGVPSRFSGSGSGTDYTLTISSLQPEDFATYYCLQHGESPYTFGGGTKVEIK = binds

Below: the item to evaluate.
Record H鎖ヒト型化バージョンb/L鎖ヒト型化バージョンb抗体 (antibody, V domains shown, Human IgG4 kappa (vector N5KG4P); also called b-b; bb) VH: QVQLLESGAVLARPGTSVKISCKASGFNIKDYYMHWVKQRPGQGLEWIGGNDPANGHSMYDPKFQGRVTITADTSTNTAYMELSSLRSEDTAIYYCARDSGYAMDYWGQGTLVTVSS VL: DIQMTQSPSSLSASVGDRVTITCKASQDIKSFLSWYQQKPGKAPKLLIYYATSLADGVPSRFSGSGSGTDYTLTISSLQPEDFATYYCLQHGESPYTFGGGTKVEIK . Reported binding result: binds
